System: ZR-75
Assay: 3H thymidine proliferation assay, ZR-75
Format: cell-based, human
Conditions: Homo sapiens, ZR75, read-out: EC50, ZR-75, 3H thymidine method, 72 h incubation
Please go through the items and note down their EC50.

Illustrative cases are given below, each with its answer.
* CC[C@H](C)[C@H](NC(=O)[C@H]1CCCCN1C)C(=O)N(C)[C@H](C[C@@H](OC)c1nc(C(=O)N[C@H](CC(=O)OC)Cc2ccccc2)cs1)C(C)C | > 3000 nM
* CC[C@H](C)[C@H](NC(=O)[C@H]1CCCCN1C)C(=O)N(C)[C@H](C[C@@H](OC(C)=O)c1nc(C(=O)N[C@@H](Cc2ccc(N)cc2)CC(C)C(=O)O)cs1)C(C)C (stereo partly shown) | > 100 nM
* CCCC(NC(=O)c1csc([C@@H](C[C@H](C(C)C)N(C)C(=O)[C@@H](NC(=O)[C@H]2CCCCN2C)[C@@H](C)CC)OC)n1)C(=O)OC (stereo partly shown) | > 100 nM

Param readout = EC50; param system = ZR-75; param query = CC[C@H](C)[C@H](NC(=O)[C@H]1CCCCN1C)C(=O)N(C)[C@H](C[C@@H](OC)c1nc(C(=O)N[C@H](CCC(=O)OC)Cc2ccccc2)cs1)C(C)C ; response: value
> 300 nM

----------
Please go through the items and note down their pEC50.
Test system: CEM-Cl
Assay: ATP luminescence proliferation assay, CEM-C1
Format: cell-based, human
Conditions: ATP luminescence, CEM-C1, 72 h incubation; read-out: EC50 CEM-C1 (72 h)
Description: This example generally describes the procedures used to assay the antiproliferative activity of compounds of this invention or their conjugates. […] The ^3H thymidine plates were pulsed with 1.0 μCi of ^3H-thymidine per well for the last 24 hours of the total incubation period, harvested, and read on a Top Count Scintillation Counter (Packard Instruments, Meriden, Conn.). […] Table 3 provides the data for the ATP luminescence proliferation assays, with an incubation period of 48, 72, or 96 h, as noted.
Numbers only, as −log10 of the molar value.

• CC[C@H](C)[C@H](NC(=O)[C@H]1CCCCN1C)C(=O)N(C)[C@H](C[C@@H](OC)c1nc(C(=O)N[C@@H](Cc2ccccc2)C(=O)OC)cs1)C(C)C = 8.60
• CC[C@H](C)[C@H](NC(=O)[C@H]1CCCCN1C)C(=O)N(COC(=O)CC(C)C)[C@H](C[C@@H](OC(C)=O)c1nc(C(=O)N[C@@H](Cc2ccccc2)C(=O)OC)cs1)C(C)C = 9.07
• CC[C@H](C)[C@H](NC(=O)[C@H]1CCCCN1C)C(=O)N(COC(=O)CC(C)C)[C@H](C[C@@H](O)c1nc(C(=O)N[C@@H](Cc2ccccc2)C(=O)OC)cs1)C(C)C = 7.96

For the next question, use this molecule.
# input molecule: CC[C@H](C)[C@H](NC(=O)[C@H]1CCCCN1C)C(=O)N(C)[C@H](C[C@@H](OC)c1nc(C(=O)N[C@@H](Cc2ccc(N)cc2)CC(C)C(=O)O)cs1)C(C)C (some centres unmarked) ; wanted: its pEC50
8.32
